The reported measurements were obtained from patent US5770623A.

- Test system: murine endothelial cells exposed to Gamma-Interferon and TNF (nitric oxide production)
- Measurement protocol: Inhibition of nitrite production by MBEC exposed to IFN (100 U/ml) and TNF (500 U/ml)
- Format: cell-based
- Test settings: Mus musculus, Endothelial cell, read-out: E.D. 50% for inhibition of nitrite production; MBEC exposed to TNF and IFN
Reported endpoint: IC50 (µM)
Value expressed in µM; do not type the unit.

stdin: Endpoint output: IC50 of CNC(=N)NCCC[C@H](N)C(=O)O [NMMA, N^G -methyl-L-arginine] . Value?
stdout: 330

---

- System: murine endothelial cells exposed to Gamma-Interferon and TNF (nitric oxide production)
- Measurement protocol: Inhibition of nitrite production by MBEC exposed to IFN (100 U/ml) and TNF (500 U/ml)
- Type: cell-based
- Test settings: Mus musculus, Endothelial cell, 48 h, read-out: ED50% (effective dose that inhibited 50% of the nitrite production)
Reported endpoint: IC50 (mM)
Response body: numeric value in mM, unit text excluded.

> print(dat)
                            record.smiles  value.reported
1  COC(=O)[C@@H](N)CCCNC(=N)N[N+](=O)[O-]            1.83

# context switch: different molecule, same IC50
stdin: So what does the record say about IC50 for N=C(NN)NCCC[C@H](N)C(=O)O ?
stdout: 0.11
